biological target: CB1 (mutant) (Homo sapiens, UniProt P21554); experiment: R-SAT functional receptor assay, CB1 (mutant, truncated after amino acid 417); format: cell-based; conditions: Appendix A; R-SAT CB1; receptor form not stated; relative to SR141716 (100%); read-out: % Inhibition
Sequence (P21554 1-417, change not shown): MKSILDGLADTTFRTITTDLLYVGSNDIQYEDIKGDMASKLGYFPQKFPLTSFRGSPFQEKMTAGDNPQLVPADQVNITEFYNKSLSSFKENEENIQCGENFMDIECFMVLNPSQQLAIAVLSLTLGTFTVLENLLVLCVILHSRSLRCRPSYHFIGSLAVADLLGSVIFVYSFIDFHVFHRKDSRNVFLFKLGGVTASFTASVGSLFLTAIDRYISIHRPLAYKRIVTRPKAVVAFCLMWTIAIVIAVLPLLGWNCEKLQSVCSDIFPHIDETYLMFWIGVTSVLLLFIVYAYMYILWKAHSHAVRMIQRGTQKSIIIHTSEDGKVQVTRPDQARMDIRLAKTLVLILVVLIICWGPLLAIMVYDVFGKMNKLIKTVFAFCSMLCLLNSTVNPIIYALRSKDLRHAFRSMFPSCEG

- molecule: "O=C(NCCc1ccncc1)c1ccc2c(c1)N=C(c1ccc(Cl)c(Cl)c1)c1ccccc1S2 [drawing 1095]"
  Emax [%]: 119
- molecule: "CON(C)C(=O)c1ccc2c(c1)N=C(c1ccccc1Cl)c1ccccc1S2"
  Emax [%]: 10
- molecule: "O=C(NCc1ccc(F)cc1)c1ccc2c(c1)N=C(c1ccc(F)cc1)c1ccccc1N2"
  Emax [%]: 61
- molecule: "COCCNC(=O)c1ccc2c(c1)N=C(c1ccc(Cl)s1)c1ccccc1S2 [drawing 819]"
  Emax [%]: 103
- molecule: "Cc1csc(CNC(=O)c2ccc3c(c2)N=C(c2cccc(F)c2)c2ccccc2S3)c1 [drawing 557]"
  Emax [%]: 96
- molecule: "CCCC1=Nc2cc(C(=O)NCCc3ccc(OC)c(OC)c3)ccc2Sc2ccccc21"
  Emax [%]: 105
- molecule: "CCOCCNC(=O)c1ccc2c(c1)N=C(c1ccc(OC)cc1)c1ccccc1S2"
  Emax [%]: 90
- molecule: "Cc1csc(CNC(=O)c2ccc3c(c2)N=C(c2sccc2C)c2ccccc2S3)c1 [drawing 661]"
  Emax [%]: 102
- molecule: "O=C(NCCc1ccc(Cl)cc1)c1ccc2c(c1)N=C(c1cccc(Cl)c1)c1ccccc1S2 [drawing 569]"
  Emax [%]: 106

---

assay: Clearance study, liver microsomes (rats); conditions: rat, pH 7.4
Response field label takes 1.0 when microsomal CLint at 1 μM is strictly below 70 µL/min/mg and 0.0 in all other cases.

- molecule: "CCCCNC(=O)c1cnc2c(n1)N=C(c1ccccc1)c1ccccc1S2 [drawing 1722]"
  category: 1.0
- molecule: "O=C(NCCc1cccnc1)c1ccc2c(c1)N=C(c1ccc(Cl)c(Cl)c1)c1ccccc1S2 [drawing 1668]"
  category: 1.0
- molecule: "Cc1ccsc1C1=Nc2cc(C(=O)NCc3cccs3)ccc2Sc2ccccc21 [drawing 1781]"
  category: 0.0
- molecule: "O=C(NCc1ccc(F)cc1)c1ccc2c(c1)N=C(c1ccccc1)c1ccccc1S2 [drawing 1787]"
  category: 0.0
- molecule: "O=C(NCc1ccco1)c1ccc2c(c1)N=C(c1ccc(Cl)cc1)c1ccccc1S2 [drawing 1803]"
  category: 0.0
- molecule: "O=C(NCc1ccc(F)cc1)c1ccc2c(c1)N=C(N1CCCCC1)c1ccccc1S2 [drawing 1738]"
  category: 0.0
- molecule: "O=C(NCCc1cccnc1)c1ccc2c(c1)N=C(c1cccc(Cl)c1)c1ccccc1S2 [drawing 1770]"
  category: 0.0
- molecule: "CC(C)CNC(=O)c1ccc2c(c1)N=C(c1ccsc1)c1ccccc1S2 [drawing 1753]"
  category: 0.0
- molecule: "O=C(NCCc1ccc(Cl)cc1)c1ccc2c(c1)N=C(c1ccc(F)cc1)c1ccccc1S2 [drawing 1799]"
  category: 0.0
- molecule: "O=C(NCc1cccc(Cl)c1)c1ccc2c(c1)N=C(c1cccc(Cl)c1)c1cc(F)ccc1S2 [drawing 1805]"
  category: 1.0
- molecule: "CCCCNC(=O)c1ccc2c(c1)N=C(c1cccc(Cl)c1)c1cc(Cl)ccc1S2 [drawing 1750]"
  category: 1.0
- molecule: "O=C(NCCc1cccc(Cl)c1)c1ccc2c(c1)N=C(c1ccc(Cl)cc1)c1ccccc1S2 [drawing 1766]"
  category: 0.0
- molecule: "Cc1ccsc1C1=Nc2cc(C(=O)NN3CCCCCC3)ccc2Sc2ccccc21 [drawing 1706]"
  category: 0.0
- molecule: "Cc1cccc(C2=Nc3cc(C(=O)NCC(C)C)ccc3Sc3ccccc32)n1 [drawing 1692]"
  category: 0.0
- molecule: "O=C(NCCCC(F)(F)F)c1ccc2c(c1)N=C(c1ccc(Cl)s1)c1ccccc1S2 [drawing 1655]"
  category: 0.0
- molecule: "CC(NC(=O)c1ccc2c(c1)N=C(c1ccc(Cl)cc1)c1ccccc1S2)c1ccccc1 (centres unmarked) [drawing 1804]"
  category: 1.0
